Entries and their measured cytotoxicity at 10 µM follow.
# protocol_text: Toxicity liver stage against HepG2, at 10uM
# Format: cell-based
# Set-up: test concentration 10 uM, cell line HepG2-A16-CD81EGFP
# condition_set: human, HepG2-A16-CD81EGFP cells; read-out: INHIBITION
metric_name: cytotoxicity at 10 µM (%)

>>> number("CCN(c1ccsc1C(=O)N1CCSCC1)S(=O)(=O)c1ccccc1")
8.24
>>> number("Cc1ccc(F)cc1S(=O)(=O)N1C[C@@H](C)[C@@](C)(O)C1")
-0.784
>>> number("O=C(CSc1ccc(Br)cc1)NS(=O)(=O)c1ccc2c(c1)OCCO2")
-5.51
>>> number("CS(=O)(=O)N1CCCC12CCCN(S(=O)(=O)c1ccc(F)c(F)c1)C2 (configuration not stated)")
1.46
>>> number("Cc1ccc(OCC(=O)NCC(C)C)nc1")
-18.3
>>> number("COCCC(=O)N1CCCC(CCC(=O)NCc2ccccc2F)C1 (configuration not stated)")
11
>>> number("COCCC(Cc1cccc(Br)c1)C(=O)O (configuration not stated)")
9.21
>>> number("CCCn1nnnc1COc1cc(OC)ccc1C(N)=O")
-4.42
>>> number("COc1ccc2c(ccn2CCC(=O)Nc2n[nH]c(CC(C)C)n2)c1")
8.29
>>> number("Cc1cc(S(=O)(=O)NCC2CNCCOC2)c(C)cc1Cl (configuration not stated)")
-0.708
>>> number("N#Cc1cccnc1Oc1cc(F)c(CN2CCCC2)c(Cl)c1")
-13.9
>>> number("O=C(CCC(=O)Nc1ccccc1)NCC(=O)c1ccc(F)cc1F")
-0.493
